Documented z-score across a set of compounds
biological target: NADPH oxidase 2 (Homo sapiens) (UniProt P04839); assay: NOX2-dependent H2O2 signal modulators, primary screen, NOX inhibitor project, cell-based, HEK293-NOX2, PMA-stimulated, Amplex Red fluorescence (AID 1159); settings: 45 min, higher = more signal, called active from +8 up or from −8 down; note: test concentration not given here
Sequence (P04839 whole entry, looked up): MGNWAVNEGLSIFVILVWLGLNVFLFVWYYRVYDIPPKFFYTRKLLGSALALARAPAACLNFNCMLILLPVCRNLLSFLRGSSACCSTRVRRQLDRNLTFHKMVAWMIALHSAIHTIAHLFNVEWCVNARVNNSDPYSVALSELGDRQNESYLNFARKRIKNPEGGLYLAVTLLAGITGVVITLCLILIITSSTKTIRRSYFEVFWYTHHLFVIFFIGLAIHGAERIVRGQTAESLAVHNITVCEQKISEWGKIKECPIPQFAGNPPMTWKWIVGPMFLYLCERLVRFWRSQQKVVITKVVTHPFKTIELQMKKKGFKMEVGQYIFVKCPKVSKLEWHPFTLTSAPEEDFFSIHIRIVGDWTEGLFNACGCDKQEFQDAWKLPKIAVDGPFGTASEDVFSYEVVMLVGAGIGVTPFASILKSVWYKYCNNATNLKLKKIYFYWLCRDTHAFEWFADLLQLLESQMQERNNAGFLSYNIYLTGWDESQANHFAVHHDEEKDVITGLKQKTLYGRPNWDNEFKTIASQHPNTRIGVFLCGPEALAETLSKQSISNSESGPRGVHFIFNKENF

[
  {
    "COMPOUND": "C=CCC(OC(C)=O)[C@@H]1[C@@H](N(Cc2ccc(-c3ccccc3)cc2)C(=O)c2ccc(C)cc2)c2cc(OCCCO)ccc2N1C(=O)Cc1ccc2ccccc2c1 (stereo partly specified)",
    "z-score": -1.68
  },
  {
    "COMPOUND": "NC(=O)NCC#Cc1ccc2c(c1)[C@]1(C(=O)N2)[C@H](C(=O)N2CCN(c3ncccn3)CC2)[C@H]2C(=O)O[C@H](c3ccccc3)[C@H](c3ccccc3)N2[C@@H]1c1ccc(OCCO)cc1",
    "z-score": 1.44
  },
  {
    "COMPOUND": "NC(=O)[C@@H]1[C@H]2C(=O)O[C@H](c3ccccc3)[C@H](c3ccccc3)N2[C@H](c2ccc(OCCO)cc2)[C@@]12C(=O)Nc1ccc(C#CCCO)cc12",
    "z-score": 1.5
  },
  {
    "COMPOUND": "COc1ccc([Si](C)(C)[C@@H]2[C@@H](CCn3cc([C@H](O)c4ccccc4)nn3)O[C@]3(C(=O)N(Cc4cccc(N5C(=O)c6cccc7cccc5c67)c4)c4ccccc43)[C@H]2C)cc1",
    "z-score": 1.08
  },
  {
    "COMPOUND": "COc1ccc(C#Cc2ccc3c(c2)[C@]2(C(=O)N3)[C@H](C(=O)N3CCCCCCC3)[C@H]3C(=O)O[C@H](c4ccccc4)[C@H](c4ccccc4)N3[C@@H]2c2ccc(O)cc2)cc1",
    "z-score": 0.697
  },
  {
    "COMPOUND": "CC(C)C(=C=CC[C@@H](O)c1cccc(OCCO)c1)C[C@@H](O)COCc1ccccc1",
    "z-score": -1.19
  }
]
